- Assay Info: chemical genetic growth profiling, strain panel (AID 1159580);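 further: tested at 20 µM; growth read once vehicle control cultures reached saturation at 30 °C; 1 = growth at the plate median or of vehicle wells; lower values mean less growth of the strain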
- Measurement Context: S. cerevisiae deletion strains, growth OD, locus YDR159W, strain sac3, stronger effect = lower value
About 2,000 (36%) of roughly 5,500 compounds were called active. Another 18% or so got no clear call; they are omitted. This is one part of the list.
Hi there, I'd appreciate the recorded normalized growth for every entry that follows.
Keep the answer to the number alone.

Prompt: Bench note: what normalized growth did C[C@H]1O[C@@H](O[C@H]2[C@@H](O)C[C@H](O[C@H]3[C@@H](O)C[C@H](O[C@H]4CC[C@]5(C)C6C[C@@H](O)[C@]7(C)[C@@H](C8=CC(=O)OC8)CC[C@]7(O)C6CC[C@@H]5C4)O[C@@H]3C)O[C@@H]2C)C[C@H](O)[C@@H]1O (some centres not stated) show?
Response: 1.02

Prompt: Item: COC(=O)CC1C(C)(C)C(OC(C)=O)[C@@H]2[C@@H](OC(C)=O)[C@]34O[C@@]2(O)[C@]1(C)C3CC[C@]1(C)C4=CC(=O)O[C@H]1c1ccoc1 (some centres not stated)
Response: 1

Prompt: Item: `NCCCN`
Response: 0.961

Prompt: Item: COC1C(O)C(O[C@H]2CC[C@]3(C=O)C4C(CC[C@]3(O)C2)[C@@]2(O)CC[C@H](C3=CC(=O)OC3)[C@@]2(C)C[C@H]4OC(C)=O)OC(C)C1OC(C)=O (some centres not stated)
Response: 0.966

Prompt: Item: NS(=O)(=O)c1cc2c(cc1C(F)(F)F)NC(Cc1ccccc1)NS2(=O)=O (configuration not stated)
Response: 0.991

Prompt: Item: `O=C(O)CCc1nc(-c2ccccc2)c(-c2ccccc2)o1`
Response: 0.916

Prompt: Item: `COc1ccccc1N1CCN(CCCNc2cc(=O)n(C)c(=O)n2C)CC1`
Response: 1

----------
- Assay Info: chemical genetic growth profiling, strain panel (AID 1159580)
- Measurement Context: S. cerevisiae deletion strains, growth OD, locus YJR066W, strain TOR1 (second series), stronger effect = lower value
In all, about 5,500 compounds went through this assay and about 2,000 (36%) were called active. Roughly 18% stayed inconclusive and do not appear here. The list shows a part of the results.
Hi there, I'd appreciate the recorded normalized growth for every entry that follows.
Keep the answer to the number alone.

Prompt: Bench note: what normalized growth did `O=C(O/N=C1/CCCc2[nH]c3ccccc3c21)c1ccc(Cl)cc1Cl` show?
Response: 0.876

Prompt: Item: `O=c1[nH][nH]c(=O)n1CCCc1cc2cccc3ccc4cccc1c4c32`
Response: 0.927

Prompt: Item: `CC(C)(C)NC(=S)N/N=C\c1cc(Br)c(O)c(Br)c1`
Response: 0.932

Prompt: Item: `O=C1Nc2ccccc2/C1=C\c1c[nH]c2ccccc12`
Response: 0.111

Prompt: Item: `O=C(O/N=C1/CCCc2[nH]c3ccccc3c21)C1CCCCC1`
Response: 0.902

Prompt: Item: `CO/N=C1/CC(C)(C)Cc2c(-c3ccn(C(=O)Nc4cccc(Cl)c4)n3)sc(SC)c21`
Response: 1.06

Prompt: Item: `FC(F)(F)Sc1ccc(OCc2n[nH]c(=S)n2-c2ccccc2)cc1`
Response: 0.906

Prompt: Item: `O=C1/C(=C/c2c[nH]c3ccccc23)CSc2ccccc21`
Response: 0.913

Prompt: Item: `N/C(=N/OC(=O)c1ccc([N+](=O)[O-])cc1)c1c(Cl)cccc1Cl`
Response: 0.598

Prompt: Item: `Cc1cc(Br)c(O)c(/C=N\NC(=S)NC(C)(C)C)c1`
Response: 0.839

Prompt: Item: `O=C(OCc1ccccc1Br)c1cc([N+](=O)[O-])cc([N+](=O)[O-])c1`
Response: 0.781

----------
- Assay Info: chemical genetic growth profiling, strain panel (AID 1159580);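 further: tested at 20 µM; growth read once vehicle control cultures reached saturation at 30 °C; 1 = growth at the plate median or of vehicle wells; lower values mean less growth of the strain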
- Measurement Context: S. cerevisiae deletion strains, growth OD, locus YOL147C, strain pex11, stronger effect = lower value
Screen size: about 5,500 compounds; about 2,000 (36%) were called active. About 18% were inconclusive and are not listed. Some of the results follow.
Hi there, I'd appreciate the recorded normalized growth for every entry that follows.

Prompt: Bench note: what normalized growth did CC1(C)O[C@@H]2CC3C4C[C@H](F)C5=CC(=O)CC[C@]5(C)C4[C@@H](O)C[C@]3(C)[C@]2(C(=O)CO)O1 (stereo not given in full) show?
Response: 1.01 (inactive)

Prompt: Item: `CC(=O)Oc1ccccc1C(=O)Oc1ccccc1C(=O)O`
Response: 0.991 (inactive)

Prompt: Item: `CCc1ccc2c(O)c3c(cc2c1C(=O)OC)C(=O)c1c(O)ccc(O)c1C3=O`
Response: 1.01 (inactive)

Prompt: Item: `COc1cc(C(=O)N2CCOCC2)cc(OC)c1OC`
Response: 0.829 (active)

Prompt: Item: `CC1(C)S[C@@H]2[C@H](NC(=O)[C@@H](N)c3ccc(O)cc3)C(=O)N2[C@H]1C(=O)O`
Response: 1.01 (inactive)

Prompt: Item: CC(C)(C)NCC(O)COc1cccc2c1C[C@H](O)[C@H](O)C2 (stereo not given in full)
Response: 0.992 (inactive)

Prompt: Item: Oc1ccc2c3c1OC1[C@@H](O)CC[C@@]4(O)[C@@H](C2)N(CC2CCC2)CC[C@]314 (stereo not given in full)
Response: 1.01 (inactive)

Prompt: Item: `CNC[C@H](O)c1cccc(O)c1`
Response: 1.02 (inactive)

Prompt: Item: `CN(C)C(=O)C(CCN1CCC(O)(c2ccc(Cl)cc2)CC1)(c1ccccc1)c1ccccc1`
Response: 1.01 (inactive)

Prompt: Item: `COC1=CC(=O)C=C(OC)C1=O`
Response: 0.988 (inactive)

----------
- Assay Info: chemical genetic growth profiling, strain panel (AID 1159580);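 further: tested at 20 µM; growth read once vehicle control cultures reached saturation at 30 °C; 1 = growth at the plate median or of vehicle wells; lower values mean less growth of the strain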
- Measurement Context: S. cerevisiae deletion strains, growth OD, locus YIL125W, strain kgd1
In all, about 5,500 compounds went through this assay and about 2,000 (36%) were called active. Inconclusive results (about 18%) are left out. Rule as the data show it: active = normalized growth mostly below about 0.91 (no sharp cut-off); inconclusive = no clear call, values can overlap the other calls; inactive = mostly above about 0.92. The list shows a part of the results.
Valid outcomes are listed here; reply with one: active, inactive

Prompt: Outcome logged for CC1CCCC(C)N1NC(=O)c1ccc(Cl)c(S(N)(=O)=O)c1 (stereo not given) in this assay:
Response: inactive

Prompt: Item: CCC(=O)O[C@]1(C(=O)CCl)[C@@H](C)CC2C3CCC4=CC(=O)C=C[C@]4(C)[C@@]3(F)[C@@H](O)C[C@@]21C (stereo not given in full)
Response: inactive

Prompt: Item: CCCCC(=O)O[C@]1(C(=O)CO)[C@@H](C)CC2C3CCC4=CC(=O)C=C[C@]4(C)[C@@]3(F)C(O)C[C@@]21C (stereo not given in full)
Response: inactive

Prompt: Item: `COc1cc(C(=O)N2CCOCC2)cc(OC)c1OC`
Response: active

Prompt: Item: `COc1cc(C(=O)O)cc(OC)c1OC`
Response: inactive

Prompt: Item: NCC(O)CC(=O)O (stereo not given)
Response: inactive

Prompt: Item: CCC(=O)OCC(=O)C1(OC(=O)CC)C(C)CC2C3CCC4=CC(=O)C=CC4(C)C3(Cl)C(O)CC21C (stereo not given)
Response: inactive

Prompt: Item: CCC(=O)OCC(=O)[C@@]1(OC(=O)CC)[C@@H](C)CC2C3CCC4=CC(=O)C=C[C@]4(C)C3(F)[C@@H](O)C[C@@]21C (stereo not given in full)
Response: inactive

Prompt: Item: `O=C(O)c1cc(O)ccc1O`
Response: inactive

Prompt: Item: CC1Cc2ccccc2N1NC(=O)c1ccc(Cl)c(S(N)(=O)=O)c1 (stereo not given)
Response: inactive

----------
- Assay Info: chemical genetic growth profiling, strain panel (AID 1159580);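 further: tested at 20 µM; growth read once vehicle control cultures reached saturation at 30 °C; 1 = growth at the plate median or of vehicle wells; lower values mean less growth of the strain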
- Measurement Context: S. cerevisiae deletion strains, growth OD, locus YEL003W, strain gim4
The whole screen tested about 5,500 compounds, of which about 2,000 (36%) were called active. About 18% were inconclusive and are not listed. Cut-off read from the data, not from the text of the source: active = normalized growth mostly below about 0.91 (no sharp cut-off); inconclusive = no clear call, values can overlap the other calls; inactive = mostly above about 0.92. Some of the results follow.
Valid outcomes are listed here; reply with one: True = active, False = inactive

Prompt: Outcome logged for `C=CCSC[C@@H](N)C(=O)O` in this assay:
Response: False

Prompt: Item: `COc1cc(-c2cc(=O)c3c(O)c(OC)c(OC)c(OC)c3o2)cc(OC)c1OC`
Response: False

Prompt: Item: C[C@@H]1CCC2[C@](C)(CO)[C@@H](O)CC[C@]2(C)[C@@]12CC[C@@](CO)(CCO)O2 (stereo partly specified)
Response: False

Prompt: Item: `COc1cc2c(cc1OC)-c1c(oc3cc(O)cc(O)c3c1=O)CO2`
Response: False

Prompt: Item: `CC(C)Nc1nc(Cl)nc(NC(C)C)n1`
Response: False

Prompt: Item: `O=S(=O)(O)O`
Response: False

Prompt: Item: COC(=O)C(N)CS (stereo unspecified)
Response: False

Prompt: Item: CC(C)=CC1C(CO)C1(C)C (stereo unspecified)
Response: False

Prompt: Item: `Cc1c(C(N)=O)cc([N+](=O)[O-])cc1[N+](=O)[O-]`
Response: False

Prompt: Item: CCCCC(=O)O[C@]1(C(=O)CO)[C@@H](C)CC2C3CCC4=CC(=O)C=C[C@]4(C)[C@@]3(F)C(O)C[C@@]21C (stereo partly specified)
Response: False

Prompt: Item: `Nc1ccc(S(=O)(=O)Nc2ncccn2)cc1`
Response: False

Prompt: Item: C[C@H]1O[C@H](O[C@H]2[C@H](O)[C@@H](O)[C@@H](O[C@H]3[C@H](O)[C@@H](O)C(O)O[C@@H]3CO)O[C@@H]2CO)[C@H](O)[C@@H](O)[C@@H]1N[C@H]1C=C(CO)[C@@H](O)[C@H](O)[C@H]1O (stereo partly specified)
Response: False

Prompt: Item: `C=CCSCC=C`
Response: False

Prompt: Item: CCC(=O)OCC(=O)[C@@]1(OC(=O)CC)[C@@H](C)CC2C3CCC4=CC(=O)C=C[C@]4(C)C3(F)[C@@H](O)C[C@@]21C (stereo partly specified)
Response: False

Prompt: Item: NCC(O)CC(=O)O (stereo unspecified)
Response: False

Prompt: Item: Cc1ccccc1N1C(=O)c2cc(S(N)(=O)=O)c(Cl)cc2NC1C (stereo unspecified)
Response: False

Prompt: Item: `COc1cc(O)c2c(=O)cc(-c3ccc(OC)c(-c4c(O)cc(O)c5c(=O)cc(-c6ccc(O)cc6)oc45)c3)oc2c1`
Response: False

Prompt: Item: `COc1ccc(-c2cc(=O)c3c(O)cc(O)c(-c4cc(-c5cc(=O)c6c(O)cc(O)cc6o5)ccc4OC)c3o2)cc1`
Response: False

Prompt: Item: `O=C1CC2(CCCC2)CC(=O)N1CCCCN1CCN(c2ncccn2)CC1`
Response: False

Prompt: Item: NC[C@H]1O[C@H](OC2[C@@H](N)C[C@@H](N)[C@H](O[C@H]3O[C@H](CO)[C@@H](O)[C@H](N)[C@H]3O)[C@H]2O)[C@H](O)[C@@H](O)[C@@H]1O (stereo partly specified)
Response: False

Prompt: Item: NC[C@@H]1O[C@H](O[C@@H]2[C@@H](CO)OC(O[C@@H]3[C@@H](O)[C@H](N)C[C@H](N)[C@H]3O[C@H]3O[C@H](CO)[C@@H](O)[C@H](O)[C@H]3N)[C@@H]2O)[C@H](N)[C@@H](O)[C@@H]1O (stereo partly specified)
Response: False

Prompt: Item: `CN[C@H]1CC[C@@H](c2ccc(Cl)c(Cl)c2)c2ccccc21`
Response: True

Prompt: Item: CC1(C)S[C@@H]2C(N3C(=O)[C@@H](c4ccccc4)NC3(C)C)C(=O)N2[C@H]1C(=O)O (stereo partly specified)
Response: False

Prompt: Item: O=c1c(-c2ccc(O)cc2)coc2c(C3O[C@H](CO)[C@@H](O)[C@H](O)[C@H]3O)c(O)ccc12 (stereo partly specified)
Response: False

Prompt: Item: `NCCCC(O)(P(=O)(O)O)P(=O)(O)O`
Response: False

Prompt: Item: `NCCCN`
Response: False

Prompt: Item: `CC1(C)S[C@@H]2[C@H](NC(=O)[C@@H](N)c3ccc(O)cc3)C(=O)N2[C@H]1C(=O)O`
Response: False

Prompt: Item: `NC[C@H]1O[C@H](O[C@H]2[C@H](O)[C@@H](O[C@H]3O[C@H](CO)[C@@H](O)[C@H](N)[C@H]3O)[C@H](N)C[C@@H]2N)[C@H](N)[C@@H](O)[C@@H]1O`
Response: False

Prompt: Item: `CO[C@@H]1[C@@H](OC(N)=O)[C@@H](O)[C@H](Oc2ccc3c(O)c(NC(=O)c4ccc(O)c(CC=C(C)C)c4)c(=O)oc3c2C)OC1(C)C`
Response: False

Prompt: Item: `C=CCSSSCC=C`
Response: False

Prompt: Item: CC1(C)S[C@@H]2[C@H](NC(=O)C(C(=O)O)c3ccccc3)C(=O)N2[C@H]1C(=O)O (stereo partly specified)
Response: False

Prompt: Item: `COc1c(O)cc2c(c1O)[C@H]1O[C@H](CO)[C@@H](O)[C@H](O)[C@@H]1OC2=O`
Response: False

Prompt: Item: CCC(=O)OCC(=O)C1(OC(=O)CC)C(C)CC2C3C(Cl)CC4=CC(=O)C=CC4(C)C3C(O)CC21C (stereo unspecified)
Response: False

Prompt: Item: `Cc1ccc(-c2nc3ccc(C)cn3c2CC(=O)N(C)C)cc1`
Response: False

Prompt: Item: `OC1(c2ccc(Cl)c(C(F)(F)F)c2)CCN(CCCC(c2ccc(F)cc2)c2ccc(F)cc2)CC1`
Response: True

Prompt: Item: `COc1ccc(-c2cc(=O)c3c(O)c(OC)c(O[C@H]4O[C@H](CO[C@@H]5O[C@@H](C)[C@H](O)[C@@H](O)[C@H]5O)[C@@H](O)[C@H](O)[C@H]4O)cc3o2)cc1`
Response: False
